src = the supplement of paper PMC12667976

B1: library; numbered along this chain (parent)
chain: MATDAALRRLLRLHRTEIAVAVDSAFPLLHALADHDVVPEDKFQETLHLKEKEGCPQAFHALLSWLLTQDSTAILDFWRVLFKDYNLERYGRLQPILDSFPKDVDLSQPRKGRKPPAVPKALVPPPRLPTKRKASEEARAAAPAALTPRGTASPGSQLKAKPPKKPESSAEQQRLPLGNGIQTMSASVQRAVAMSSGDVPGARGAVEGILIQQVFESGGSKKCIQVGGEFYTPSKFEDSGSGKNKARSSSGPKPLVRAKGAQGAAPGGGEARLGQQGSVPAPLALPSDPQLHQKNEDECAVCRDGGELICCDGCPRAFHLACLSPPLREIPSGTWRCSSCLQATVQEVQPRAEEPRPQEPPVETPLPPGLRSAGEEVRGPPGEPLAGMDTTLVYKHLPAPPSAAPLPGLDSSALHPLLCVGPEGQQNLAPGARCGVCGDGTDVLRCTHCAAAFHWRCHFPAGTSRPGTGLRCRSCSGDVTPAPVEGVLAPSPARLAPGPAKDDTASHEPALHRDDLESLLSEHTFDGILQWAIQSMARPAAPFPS

variants of: B1; assay: AIRE transcriptional activation functional score (insulin promoter-GFP; nonsense median 0, synonymous median 1) (normalised score); higher = higher AIRE activity (more reporter activation); conditions: with insulin promoter-GFP reporter in HEK293
Binary classification by AIRE transcriptional activation functional score, with 0.7 as an inclusive lower bound for 1; all other cases are -1.

1) H292Q	-1
2) Q346R	1
3) C434S	-1
4) D34N	-1
5) M536I	1
6) T463S	1
7) K114G	-1
8) A193H	1
9) P357H	1
10) V436R	-1
11) G197T	-1
12) E353A	1
13) R471F	1
14) A284Y	1
15) I528A	-1
16) F26P	-1
17) A373I	1
18) G486I	1
19) G180F	-1
20) Q182H	1
21) K83C	-1
22) G112E	1
23) P56F	1
24) A138P	1
25) G269N	-1
26) Q69S	-1
27) P509E	1
28) D70C	-1
29) A317F	1
30) C437I	-1
31) I528G	-1
32) E296Q	1
33) C299D	-1
34) L529C	-1
35) P398Q	1
36) G228I	-1
37) T16D	-1
38) K159V	1
39) R328S	1
40) D304T	1
41) E363T	1
42) L308E	1
43) Q342E	1
44) S278E	1
45) S64F	-1
46) A205P	1
47) P116Q	1
48) R127A	-1
49) P280W	-1
50) C314Q	-1
51) A31S	-1
52) S250N	1
53) K222R	1
54) S412W	1
55) D4W	-1
56) Q276I	1
57) G467D	-1
58) S71T	1
59) V420F	1
60) S196C	1
61) C311M	1
62) G438M	1
63) L428W	1
64) P200L	1
65) A413Y	1
66) P368K	1
67) A281C	1
68) D439F	-1
69) R513D	1
70) P466G	1
71) D478Q	1
72) A202I	1
73) A321P	1
74) L370A	-1
75) S464L	1
76) A496I	1
77) A489H	1
78) R371G	1
79) L13T	-1
80) E383Y	1
81) R378A	1
82) K42S	-1
83) G155V	-1
84) L417N	1
85) G438N	1
86) L327H	-1
87) H35P	-1
